protocol-notes: In vitro (pH stability) assay: intramolecular cyclization-release of capsaicin from the prodrug in buffer
Format: physicochemical
condition-details: pH = 4.5 (0.1M aqueous sodium acetate buffer), RT; read-out: Intramolecular Cyclization-Release Half-life (T1/2) at pH 4.5 & RT (converted)
observed-property: half-life (h)
Respond numerically; units are h and should not be typed.

Task: Given CCOC(=O)N1CCN(C(=O)Oc2ccc(CNC(=O)CCCC/C=C/C(C)C)cc2OC)C(CNC)C1 (stereo not drawn) [Compound 8] , state its recorded half-life.
Output: 46.2

Task: Given CNCC1CN(C)CCN1C(=O)Oc1ccc(CNC(=O)CCCC/C=C/C(C)C)cc1OC (stereo not drawn) [Compound 6] , state its recorded half-life.
Output: 1.3

Task: Given CNCC1CN(C(=O)CCOCCOCCOCCOCCOCCOCCOCCOCCOCCOC)CCN1C(=O)Oc1ccc(CNC(=O)CCCC/C=C/C(C)C)cc1OC (stereo not drawn) [Compound 3] , state its recorded half-life.
Output: 51

Task: Given CNCC1CN(C(=O)CCOCCOCCOCCOC)CCN1C(=O)Oc1ccc(CNC(=O)CCCC/C=C/C(C)C)cc1OC (stereo not drawn) [Compound 1] , state its recorded half-life.
Output: 43.3

Task: Given CNCC1CN(C(C)=O)CCN1C(=O)Oc1ccc(CNC(=O)CCCC/C=C/C(C)C)cc1OC (stereo not drawn) [Compound 7] , state its recorded half-life.
Output: 116

Task: Given CNCC1CN(C(=O)CCOCCOCCOCCOCCOCCOCCOC)CCN1C(=O)Oc1ccc(CNC(=O)CCCC/C=C/C(C)C)cc1OC (stereo not drawn) [Compound 2] , state its recorded half-life.
Output: 40.8

====

protocol-notes: In vitro (pH stability) assay: intramolecular cyclization-release of capsaicin from the prodrug in buffer
Format: physicochemical
condition-details: pH = 7.4 (0.2M aqueous tris buffer), 37° C.; read-out: Intramolecular Cyclization-Release Half-life (T1/2) at pH 7.4 & 37° C.
Can you tell me half-life for the items I'm about to list?

Task: Given CNCC1CN(C(=O)CCOCCOCCOCCOCCOCCOCCOC)CCN1C(=O)Oc1ccc(CNC(=O)CCCC/C=C/C(C)C)cc1OC (centres unmarked) [Compound 2] , state its recorded half-life.
Output: ~42 s

Task: Given CNCC1CN(C(=O)CCOCCOCCOCCOCCOCCOCCOCCOCCOCCOC)CCN1C(=O)Oc1ccc(CNC(=O)CCCC/C=C/C(C)C)cc1OC (centres unmarked) [Compound 3] , state its recorded half-life.
Output: ~48 s

Task: Given CNCC1CN(C(=O)CCOCCOCCOCCOCCOCCOCCOCCOCCOCCOCCOCCOCCOC)CCN1C(=O)Oc1ccc(CNC(=O)CCCC/C=C/C(C)C)cc1OC (centres unmarked) [Compound 4] , state its recorded half-life.
Output: ~36 s

Task: Given CNCC1CN(C(C)=O)CCN1C(=O)Oc1ccc(CNC(=O)CCCC/C=C/C(C)C)cc1OC (centres unmarked) [Compound 7] , state its recorded half-life.
Output: ~54 s

Task: Given CNCC1CN(C)CCN1C(=O)Oc1ccc(CNC(=O)CCCC/C=C/C(C)C)cc1OC (centres unmarked) [Compound 6] , state its recorded half-life.
Output: ~48 s

Task: Given CNCC1CNCCN1C(=O)Oc1ccc(CNC(=O)CCCC/C=C/C(C)C)cc1OC (centres unmarked) [Compound 5] , state its recorded half-life.
Output: ~24 s

Task: Given CCOC(=O)N1CCN(C(=O)Oc2ccc(CNC(=O)CCCC/C=C/C(C)C)cc2OC)C(CNC)C1 (centres unmarked) [Compound 8] , state its recorded half-life.
Output: ~78 s

Task: Given CNCC1CN(C(=O)CCOCCOCCOCCOC)CCN1C(=O)Oc1ccc(CNC(=O)CCCC/C=C/C(C)C)cc1OC (centres unmarked) [Compound 1] , state its recorded half-life.
Output: ~48 s
